target: Aurora-B(h) (Homo sapiens, UniProt Q96GD4); experiment: Kinase Profiling Assay; type: biochemical; details: peptide 100 μM
Sequence (Q96GD4 whole entry): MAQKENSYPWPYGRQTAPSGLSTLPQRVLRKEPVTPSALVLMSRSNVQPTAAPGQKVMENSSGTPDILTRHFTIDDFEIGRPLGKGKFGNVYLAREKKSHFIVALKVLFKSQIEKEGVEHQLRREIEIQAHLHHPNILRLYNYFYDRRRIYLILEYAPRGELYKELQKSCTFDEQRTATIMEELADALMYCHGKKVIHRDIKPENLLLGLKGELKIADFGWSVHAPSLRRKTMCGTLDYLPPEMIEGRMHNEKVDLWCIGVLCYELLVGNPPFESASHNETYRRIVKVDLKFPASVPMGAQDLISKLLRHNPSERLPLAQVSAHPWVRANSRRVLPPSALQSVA
outcomeMeasure: % activity

residueString	reading
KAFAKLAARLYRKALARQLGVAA [MMI-0400]	150%
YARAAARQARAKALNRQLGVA (Mammal) [MMI-0200]	166%
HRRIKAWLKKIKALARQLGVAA (Mammal) [MMI-0500]	5%
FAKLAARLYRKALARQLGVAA [MMI-0300]	128%

* * *

Target: DYRK2(h) (Homo sapiens, UniProt Q92630)
Sequence (Q92630 1-601): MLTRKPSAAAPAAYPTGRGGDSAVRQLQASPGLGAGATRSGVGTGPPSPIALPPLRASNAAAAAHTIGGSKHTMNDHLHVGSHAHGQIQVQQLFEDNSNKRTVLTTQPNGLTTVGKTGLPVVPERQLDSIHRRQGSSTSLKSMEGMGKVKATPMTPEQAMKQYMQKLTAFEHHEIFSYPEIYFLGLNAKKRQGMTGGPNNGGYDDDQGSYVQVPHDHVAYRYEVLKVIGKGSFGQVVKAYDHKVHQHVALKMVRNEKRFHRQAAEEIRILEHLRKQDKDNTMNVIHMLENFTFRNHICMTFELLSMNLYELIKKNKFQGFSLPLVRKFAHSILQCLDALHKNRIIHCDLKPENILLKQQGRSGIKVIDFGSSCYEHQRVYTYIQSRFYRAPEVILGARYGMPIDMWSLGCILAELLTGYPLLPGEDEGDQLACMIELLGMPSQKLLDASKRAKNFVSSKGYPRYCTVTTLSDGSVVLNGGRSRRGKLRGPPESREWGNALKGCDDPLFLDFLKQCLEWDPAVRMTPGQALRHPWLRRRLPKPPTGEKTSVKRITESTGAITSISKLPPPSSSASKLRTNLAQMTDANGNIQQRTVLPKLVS
Experiment: Kinase Profiling Assay
Assay type: biochemical
Conditions: peptide 100 μM
Method: Every kinase activity measurement was conducted in duplicate. Specifically, in these assays, a positively charged substrate is phosphorylated with a radiolabeled phosphate group from an ATP if the kinase is not inhibited by an inhibitor peptide. The positively charged substrate then is attracted to a negatively charged filter membrane, quantified with a scintillation counter, and compared to a 100% activity control. […]

residueString	% activity
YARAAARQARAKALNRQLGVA (Mammal) [MMI-0200]	142%
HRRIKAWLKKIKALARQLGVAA (Mammal) [MMI-0500]	127%
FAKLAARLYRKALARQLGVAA [MMI-0300]	155%
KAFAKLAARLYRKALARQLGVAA [MMI-0400]	195%
